Experiment: A549 NSCLC cell proliferation inhibitors – ATP luminescence, human non-small cell lung line, primary screen (AID 371);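 also: compound exposure lasted 72 h before the ATP read; 0% = untreated cell signal and 100% = no luminescence left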
Settings: at 10 µM, hits give high values
In all, about 3,300 compounds went through this assay and about 280 (8.5%) were called active. This is one part of a sample in which actives are shown more often than they occur.
Would you mind labelling by growth inhibition? At or over 20% is 1 (yes), under is 0 (no).

Take a look at these entries with their results.
molecule=Nc1nc(N)c2nc(-c3ccccc3)c(N)nc2n1 label="1 (yes)"
molecule=COc1ccc(C2=Nn3c(nnc3-c3ccccn3)SC2)cc1OC label="0 (no)"
molecule=CCOC(=O)c1[nH]c2ccccc2c1NC(=O)CCN1CCN(C(=O)OCC)CC1 label="0 (no)"

Quick check, growth inhibition >= 20%? O=C(Oc1oc(-c2ccco2)nc1C=Nc1ccccc1)c1ccco1
1 (yes)

Quick check, growth inhibition >= 20%? C=CCSc1nnc2n(CCc3ccccc3)c(=O)c3c4c(sc3n12)COC(C)(C)C4
0 (no)

###

Assay: A549 NSCLC cell proliferation inhibitors – ATP luminescence, human non-small cell lung line, primary screen (AID 371);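 also: compound exposure lasted 72 h before the ATP read; 0% = untreated cell signal and 100% = no luminescence left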
Settings: at 10 µM, hits give high values
In all, about 3,300 compounds went through this assay and about 280 (8.5%) were called active. This is one part of a sample in which actives are shown more often than they occur.
Quantity Kind: growth inhibition (%)
Numbers only, in %.

Some solved entries appear below for comparison.
compound=CCN1CCc2c(C#N)c(N3CCOCC3)nc(NCc3ccccc3)c2C1 quantity_kind="growth inhibition" units_label=% reported_measurement=23.9
compound=O=C(c1cncc(Br)c1)N1CCCc2ccccc21 quantity_kind="growth inhibition" units_label=% reported_measurement=8.54

// for each compound below, give its growth inhibition
1. COc1ccccc1-n1c(N)c(C(=O)NCC2CCCO2)c2nc3ccccc3nc21 (stereo not drawn)
2. Cc1oc2cc(O)cc(C)c2c(=O)c1-c1cnn(-c2ccccc2)c1
3. CCOc1cccc(-c2nnc3sc(COc4ccccc4)nn23)c1

1: 52.9; 2: 59; 3: 3.57

// for each compound below, give its growth inhibition
1. CCOc1ccc(-c2nnc3sc(-c4ccccc4OC)nn23)cc1
2. CCOC(=O)c1oc2cc(O)cc(C)c2c(=O)c1-c1cscn1
3. C[C@@H]1C[C@H](Nc2ccccc2)c2ccccc2N1C(=O)c1cccnc1
4. CCCCNc1nc2c(c(=O)n(C)c(=O)n2C)n1Cc1cccc(OC)c1

[-2.6, 4.18, 53.7, 59.5]

// for each compound below, give its growth inhibition
1. CCN1CCc2c(C#N)c(NCc3ccccc3)nc(N(CC)CC)c2C1
2. COc1ccc(-c2nnc3sc(-c4ccccc4OC)nn23)cc1
3. CCOc1cccc(-c2nnc3sc(-c4cc(OC)c(OC)c(OC)c4)nn23)c1
4. CCOc1cccc(-c2nnc3sc(-c4ccc(C)cc4)nn23)c1
5. c1cncc(-c2nnc3sc(-c4ccco4)nn23)c1
6. COc1ccccc1-c1nn2c(-c3ccc(C(C)(C)C)cc3)nnc2s1
7. Cc1oc2cc(O)ccc2c(=O)c1-c1cnn(-c2ccccc2)c1

1. 67.3
2. 4.96
3. 53.3
4. 48.3
5. 3.63
6. 83.3
7. 28.4

// for each compound below, give its growth inhibition
1. CCCCC(C(=O)O)C(C)CC(=O)Nc1cccc(C(=O)O)c1 (stereo not drawn)
2. COc1cccc(Cn2c(NCC(C)C)nc3c2c(=O)n(C)c(=O)n3C)c1
3. C=CCn1c(SCC#N)nc2c(c1=O)C(C)(C)Cc1ccccc1-2
4. COCCCNc1nc2c(c(=O)n(C)c(=O)n2C)n1Cc1cccc(OC)c1
5. Nc1c(C(=O)NCC2CCCO2)c2nc3ccccc3nc2n1/N=C/c1ccncc1 (stereo not drawn)
6. CN1CCc2c(C#N)c(N3CCCCC3)nc(N3CCOCC3)c2C1
7. CCN1CCc2c(C#N)c(NCc3ccccc3)nc(NCCO)c2C1

[-1.54, 2.01, 28.8, 33.1, 2.51, 3.07, 3.07]
